This section presents binders with their documented % Unbound by a2M values.
- targetSystem: T1, alpha-2 macroglobulin (in human plasma) (human, UniProt P01023 24-1474)
- T1 construct: Not purified: the endogenous protein of the plasma
- T1 sequence (looked up): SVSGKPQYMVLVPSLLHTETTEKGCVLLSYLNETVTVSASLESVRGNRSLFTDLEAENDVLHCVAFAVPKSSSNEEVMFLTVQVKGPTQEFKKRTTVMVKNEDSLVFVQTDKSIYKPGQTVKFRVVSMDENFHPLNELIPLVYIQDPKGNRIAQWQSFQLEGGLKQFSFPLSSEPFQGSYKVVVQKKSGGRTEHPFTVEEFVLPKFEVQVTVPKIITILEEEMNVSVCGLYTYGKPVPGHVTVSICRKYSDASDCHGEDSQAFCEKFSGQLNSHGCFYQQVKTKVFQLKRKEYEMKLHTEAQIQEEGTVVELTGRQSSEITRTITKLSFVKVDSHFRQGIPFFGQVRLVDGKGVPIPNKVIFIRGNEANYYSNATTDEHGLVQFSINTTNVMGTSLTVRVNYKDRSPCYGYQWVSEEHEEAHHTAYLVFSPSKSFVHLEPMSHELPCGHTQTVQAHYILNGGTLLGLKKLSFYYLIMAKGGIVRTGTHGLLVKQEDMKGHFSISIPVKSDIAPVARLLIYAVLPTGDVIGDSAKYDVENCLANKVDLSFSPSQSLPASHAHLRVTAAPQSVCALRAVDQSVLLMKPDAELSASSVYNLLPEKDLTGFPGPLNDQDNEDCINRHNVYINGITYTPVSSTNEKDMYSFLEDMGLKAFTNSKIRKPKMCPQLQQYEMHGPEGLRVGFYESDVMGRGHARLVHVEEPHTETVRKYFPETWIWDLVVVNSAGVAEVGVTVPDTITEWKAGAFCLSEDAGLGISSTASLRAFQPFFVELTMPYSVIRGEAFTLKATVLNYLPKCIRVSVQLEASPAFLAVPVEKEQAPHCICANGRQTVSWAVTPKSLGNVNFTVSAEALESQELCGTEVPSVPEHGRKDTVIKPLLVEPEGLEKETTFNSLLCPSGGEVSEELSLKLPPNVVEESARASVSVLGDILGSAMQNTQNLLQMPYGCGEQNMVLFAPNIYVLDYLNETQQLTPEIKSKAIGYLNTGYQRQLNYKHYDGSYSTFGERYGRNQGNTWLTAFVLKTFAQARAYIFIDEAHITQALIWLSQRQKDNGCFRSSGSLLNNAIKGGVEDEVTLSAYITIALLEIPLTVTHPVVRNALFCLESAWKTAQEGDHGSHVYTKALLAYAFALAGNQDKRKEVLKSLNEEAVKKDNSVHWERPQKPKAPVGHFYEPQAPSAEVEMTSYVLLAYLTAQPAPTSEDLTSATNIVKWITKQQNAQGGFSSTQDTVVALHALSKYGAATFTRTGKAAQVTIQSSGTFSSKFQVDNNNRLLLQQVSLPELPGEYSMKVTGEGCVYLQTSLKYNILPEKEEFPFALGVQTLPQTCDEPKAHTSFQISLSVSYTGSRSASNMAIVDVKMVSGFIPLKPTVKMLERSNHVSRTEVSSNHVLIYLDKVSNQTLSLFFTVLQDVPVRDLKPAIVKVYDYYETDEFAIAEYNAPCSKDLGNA
- assayRemarks: Ac-RQAR-AMC activity of protease after 5 min in human citrated plasma, with and without M84R ecotin
Provide only the numeric value, understood in %.

Examples from the recorded data:
{"columns": ["binder", "% Unbound by a2M, %"],
 "data": [
  ["modified MT-SP1 CB487 (I41T/Y146E/G151L/Q175D/K224N) protease domain (enzyme) VVGGTDADEGEWPWQVSLHALGQGHTCGASLISPNWLVSAAHCYIDDRGFRYSDPTQWTAFLGLHDQSQRSAPGVQERRLKRIISHPFFNDFTFDYDIALLELEKPAEYSSMVRPICLPDASHVFPAGKAIWVTGWGHTQEGGTLALILQKGEIRVINQTTCENLLPQDITPRMMCVGFLSGGVDSCQGDSGGPLSSVEADGRIFQAGVVSWGDGCAQRNNPGVYTRLPLFRDWIKENTGV", 53],
  ["modified MT-SP1 CB477 (I41T/Y146D/Q175D/K224R) protease domain (enzyme) VVGGTDADEGEWPWQVSLHALGQGHTCGASLISPNWLVSAAHCYIDDRGFRYSDPTQWTAFLGLHDQSQRSAPGVQERRLKRIISHPFFNDFTFDYDIALLELEKPAEYSSMVRPICLPDASHVFPAGKAIWVTGWGHTQDGGTGALILQKGEIRVINQTTCENLLPQDITPRMMCVGFLSGGVDSCQGDSGGPLSSVEADGRIFQAGVVSWGDGCAQRNRPGVYTRLPLFRDWIKENTGV", 67],
  ["modified MT-SP1 CB490 (I41T/Y146E/G151L/Q175D/K224R) protease domain (enzyme) VVGGTDADEGEWPWQVSLHALGQGHTCGASLISPNWLVSAAHCYIDDRGFRYSDPTQWTAFLGLHDQSQRSAPGVQERRLKRIISHPFFNDFTFDYDIALLELEKPAEYSSMVRPICLPDASHVFPAGKAIWVTGWGHTQEGGTLALILQKGEIRVINQTTCENLLPQDITPRMMCVGFLSGGVDSCQGDSGGPLSSVEADGRIFQAGVVSWGDGCAQRNRPGVYTRLPLFRDWIKENTGV", 0]
]}

For modified MT-SP1 CB488 (I41T/Y146E/G151L/Q175D/K224F) protease domain (enzyme) VVGGTDADEGEWPWQVSLHALGQGHTCGASLISPNWLVSAAHCYIDDRGFRYSDPTQWTAFLGLHDQSQRSAPGVQERRLKRIISHPFFNDFTFDYDIALLELEKPAEYSSMVRPICLPDASHVFPAGKAIWVTGWGHTQEGGTLALILQKGEIRVINQTTCENLLPQDITPRMMCVGFLSGGVDSCQGDSGGPLSSVEADGRIFQAGVVSWGDGCAQRNFPGVYTRLPLFRDWIKENTGV the binder record lists % Unbound by a2M as 85

For modified MT-SP1 CB476 (I41T/Y146D/Q175D/K224L) protease domain (enzyme) VVGGTDADEGEWPWQVSLHALGQGHTCGASLISPNWLVSAAHCYIDDRGFRYSDPTQWTAFLGLHDQSQRSAPGVQERRLKRIISHPFFNDFTFDYDIALLELEKPAEYSSMVRPICLPDASHVFPAGKAIWVTGWGHTQDGGTGALILQKGEIRVINQTTCENLLPQDITPRMMCVGFLSGGVDSCQGDSGGPLSSVEADGRIFQAGVVSWGDGCAQRNLPGVYTRLPLFRDWIKENTGV the binder record lists % Unbound by a2M as 89

Each recorded value in this set is attributed to patent US20070093443A1.
